# System: S180-bearing mice
# Protocol notes: Bio-distribution in tumor-bearing mice
# Format: in vivo
# Test context: S180-bearing mice, tail vein, 60 min

{"Compound": "O=C(CCCCC[N+]#[C][99Tc-5]([C]#[N+]CCCCCC(=O)NC1C(O)OC(CO)C(O)C1O)([C]#[N+]CCCCCC(=O)NC1C(O)OC(CO)C(O)C1O)([C]#[N+]CCCCCC(=O)NC1C(O)OC(CO)C(O)C1O)([C]#[N+]CCCCCC(=O)NC1C(O)OC(CO)C(O)C1O)[C]#[N+]CCCCCC(=O)NC1C(O)OC(CO)C(O)C1O)NC1C(O)OC(CO)C(O)C1O (stereo not shown) [[^99mTc-(CN5DG)6]^+]", "Blood uptake [% ID/g]": 0.55}
{"Compound": "O=C(CC[N+]#[C][99Tc-5]([C]#[N+]CCC(=O)NC1C(O)OC(CO)C(O)C1O)([C]#[N+]CCC(=O)NC1C(O)OC(CO)C(O)C1O)([C]#[N+]CCC(=O)NC1C(O)OC(CO)C(O)C1O)([C]#[N+]CCC(=O)NC1C(O)OC(CO)C(O)C1O)[C]#[N+]CCC(=O)NC1C(O)OC(CO)C(O)C1O)NC1C(O)OC(CO)C(O)C1O (stereo not shown) [[^99mTc-(CN2DG)6]^+]", "Blood uptake [% ID/g]": 0.20}
{"Compound": "O=C(CCCC[N+]#[C][99Tc-5]([C]#[N+]CCCCC(=O)NC1C(O)OC(CO)C(O)C1O)([C]#[N+]CCCCC(=O)NC1C(O)OC(CO)C(O)C1O)([C]#[N+]CCCCC(=O)NC1C(O)OC(CO)C(O)C1O)([C]#[N+]CCCCC(=O)NC1C(O)OC(CO)C(O)C1O)[C]#[N+]CCCCC(=O)NC1C(O)OC(CO)C(O)C1O)NC1C(O)OC(CO)C(O)C1O (stereo not shown) [[^99mTc-(CN4DG)6]^+]", "Blood uptake [% ID/g]": 0.30}
{"Compound": "O=C(CCC[N+]#[C][99Tc-5]([C]#[N+]CCCC(=O)NC1C(O)OC(CO)C(O)C1O)([C]#[N+]CCCC(=O)NC1C(O)OC(CO)C(O)C1O)([C]#[N+]CCCC(=O)NC1C(O)OC(CO)C(O)C1O)([C]#[N+]CCCC(=O)NC1C(O)OC(CO)C(O)C1O)[C]#[N+]CCCC(=O)NC1C(O)OC(CO)C(O)C1O)NC1C(O)OC(CO)C(O)C1O (stereo not shown) [[^99mTc-(CN3DG)6]^+]", "Blood uptake [% ID/g]": 0.12}
